Experiment: Therapeutic index, ratio IC50 for human HeLa cells to IC50 for normal human fibroblasts
Format: cell-based
Details: HeLa cells versus normal human fibroblasts, read-out: Ratio IC50
Quantity Measured: selectivity ratio
Quick one: just the number, no unit, thanks!

Ask: Tell me measured selectivity ratio for CC(=O)N(/N=N/c1ccc([N+](=O)[O-])cc1Cl)c1ccc([N+](=O)[O-])cc1Cl please.
Result: 0.045

###

Test system: MIA PaCa-2
Experiment: Cytotoxicity against human MIAPaCa2 cells after 72 hrs by MTT assay
Type: functional, cell-based
Conditions: MIA PaCa-2, 72 h
Quantity Measured: IC50 (nM)
Write the answer as a number in nM, unit excluded.

Ask: Please give the documented IC50 of CC(=O)N(/N=N/c1ccc([N+](=O)[O-])cc1Cl)c1ccc([N+](=O)[O-])cc1Cl
Result: 520
